experiment: protein stability index of a GFP-peptide fusion (yeast GPS) (PSI 1-4); higher = more stable; sorted into four equal gates, so the index is relative within each strain; conditions: san1∆
Class boundaries, taken from values of protein stability index, are as follows: interval 1: < 2; interval 2: ≥ 2 and < 3; interval 3: ≥ 3

Ask | Would you mind sorting ITLRTSGELLQGIVRVY [MCD1] into the appropriate category?
Reply | interval 2

Ask | Form field 'band' for NFLSKIRNINVQDALLT [SNF2]
Reply | interval 1

Ask | Category of SLLPYYHLTKAVKLGDL [RPN3] , please.
Reply | interval 1

Ask | # classify by protein stability index band: DSEKRNKYAAMLTSENA [RRP45]
Reply | interval 3

Ask | Assign a bin to TPLTENILIASLMDTLI [YCG1]
Reply | interval 2

Ask | Quick check: band for DHKRFIVFHNEFSEHTF [DIS3]
Reply | interval 2

Ask | Bin this entry: YATQVKTDNTVDKFDFY [RPT3]
Reply | interval 2

Ask | Band of VEECPQYIRTLVSEART [SSN8] ?
Reply | interval 1

Ask | Entry NVSFVLPDEKSDAMSID [YCG1] belongs to which category?
Reply | interval 3

====

Could you please report measured protein stability index for the items listed next?
assay: protein stability index of a GFP-peptide fusion (yeast GPS) (PSI 1-4); higher = more stable; sorted into four equal gates, so the index is relative within each strain; conditions: ubr1∆

The value of protein stability index measured for the sequence RDVELSSDELKVIEEQL [SMC4] turned out to be 3.26

Summary for this sequence, NLSSTPMETLLSGLSAD [YML031W/NDC1] : protein stability index is 2.42

Value of protein stability index reported for the sequence LSLTLNTHYHADYRLIL [SNF2] is 2.65

Record summary for DKELRKTKFQYKFLDQN [YIL149C/MLP2] : reported protein stability index = 2.98

response.value for YSDENDPSISNNIRQAI [RRP4] (field: protein stability index) = 2.47

Query RNRGKIHSGVLSSIESD [YMR153W/NUP53] yields protein stability index of 2.94

Entry EISKKDFVRKGGLQKGK [SIR3] ; protein stability index = 1.95

Just so you know, measured protein stability index for NSITKDNIDYAPMRLAT [YJL039C/NUP192] came out at 2.57

response.value for PTLQVGDLVYARVCTAE [RRP40] (field: protein stability index) = 1.88

In plain terms, IDESMPDTAIDSQMDEA [GRR1] has a documented protein stability index of 3.06

Given item IGQSEELSDKEIYTVED [ISW2] , the value recorded as its protein stability index is 3.44

Sample STYRLEDVLSSFYRVEK [SSN2] ; protein stability index observed: 2.48

protein stability index reported for this sequence LYVPHSENRFPGWDFET [RPL5] : 2.68

The sequence NVTSSGDHNKLRSTIAN [YML103C/NUP188] showed protein stability index equal to 2.02

====

assay: protein stability index of a GFP-peptide fusion (yeast GPS) (PSI 1-4); higher = more stable; sorted into four equal gates, so the index is relative within each strain; details: pdr5∆
Give measured protein stability index for each item. Keep answers brief.
Answer as a number with no unit attached.

For reference, reported protein stability index for RKWAARAASAKIESSVE [RPS8A] stands at 3.2

response.value for NENDSQAIITERLVEFS [YIL149C/MLP2] (field: protein stability index) = 3.15

Data point: QTDADRVKDPQWLIMLG [RIP1] ; protein stability index = 3.22

protein stability index reading for GNGNVSESDIINNLPPE [YCG1] : 2.85

Reported protein stability index for LNICRQCFREKANDIGF [RPS29A] was 2.97

Memo: GGEKTVAALALLFAINS [SMC1] , reported protein stability index: 1.27

Value of measured protein stability index for the entry MNRRKIAMPKRRMAFKP [YLR335W/NUP2] : 2.35
